These entries and their values trace back to patent US20240392001A1.

Reported OD450 in ELISA assay by item:
# TESTED_TARGET: T1, LILRB2 (UniProt Q8N423 22-460, limits assumed)
# T1 construct: Panning used recombinantly expressed LILRB2-His; also called Leukocyte Immunoglobulin-like Receptor subfamily B member 2; LILRB2-His
# T1 sequence (Q8N423 22-460 limits assumed): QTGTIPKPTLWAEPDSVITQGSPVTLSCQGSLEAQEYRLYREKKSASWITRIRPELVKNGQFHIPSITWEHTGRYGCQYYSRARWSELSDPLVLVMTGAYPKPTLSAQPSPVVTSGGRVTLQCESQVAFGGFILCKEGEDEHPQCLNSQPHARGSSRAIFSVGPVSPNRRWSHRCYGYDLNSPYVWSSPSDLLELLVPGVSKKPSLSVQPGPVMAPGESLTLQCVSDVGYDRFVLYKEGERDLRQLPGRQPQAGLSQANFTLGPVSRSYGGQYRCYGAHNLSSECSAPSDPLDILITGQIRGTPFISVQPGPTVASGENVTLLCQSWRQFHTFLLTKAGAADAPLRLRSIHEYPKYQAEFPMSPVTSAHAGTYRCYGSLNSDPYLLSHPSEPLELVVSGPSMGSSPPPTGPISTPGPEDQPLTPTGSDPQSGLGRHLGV
# METHOD_SUMMARY: ELISA of phage display clone on LILRB2
// print number alone

Here are 5 binders together with their reported answers.
{"columns": ["BINDER", "ENDPOINT_LABEL", "TEST_RESULT"],
 "data": [
  ["NeuB2-19 (antibody, V domains shown, Human antibody from a phage library; also called 19-HC/19-LC) VH: QVQLVESGGGVVRPGGSLRLSCAASGFTFDDYGMSWVRQAPGKGLEWVSGINWNGGSTGYADSVKGRFTISRDNAKNSLYLQMNSLRAEDTALYYCAREGDGAFDIWGQGTLVTVSS VL: QAVVTQPPSASGTPGQRVTISCSGSGSNIRSNGVTWYQQFPGTAPKLLIYDNNQRPSGVPGRFSGSKSGTSGSLAISGLQSEDEADYYCAAWDDNLNAWVFGAGTQLTVL", "OD450 in ELISA assay", 0.663],
  ["NeuB2-93 (antibody, V domains shown, also called Ab93; 93-HC/93-LC) VH: QVQLMQSGAEVKKPGSSVKVSCKASGGRFSSNVMSWVRQAPGQGLEWMGGIIPIFGTPKYAQKFQGRVTITADKSTSTAYMELSSLRSEDTAVYYCASGSTPFDAFDIWGQGTMVTVSS VL: QPVLTQPASVSGSPGQSITISCTGTSSDVGGYNYVSWYQQHPGKAPKLMIYEVSNRPSGVSNRFSGSKSGNTASLTISGLQAEDEADYYCSSYTSSSTPWVFGGGTKVTVL", "OD450 in ELISA assay", 0.543],
  ["NeuB2-8 (antibody, V domains shown, Human antibody from a phage library; also called 8-HC/8-LC) VH: QLQLQESGPGLVKPSQTLSLTCAISGGNVSSKSAAWNWIRQSPSRGLEWLGRTYYRSKWYNDYAVSVKSRITINPDTSKNQFSLQLKSVTPEDTAVYYCARSLGEGWFPYFYGMDVWGQGTTVTVSS VL: QSVLTQPASVSGSPGQSITISCTGTNRDVGGYDYVSWYQQHPGKAPKLMIYGVSNRPSGISNRFSGSKSGSTASLTISGLQVEDEAAYYCSSYTASRTVVFGGGTKVTVL", "OD450 in ELISA assay", 0.548],
  ["NeuB2-13 (antibody, V domains shown, Human antibody from a phage library; also called 13-HC/13-LC) VH: QVQLVQSGAEVKKPGASVKVSCKASGYTFTSYYMHWVRQAPGQGLEWMGIINPSGGSTSYAQKFQGRVTMTRDTSTSTVYMELSSLRSEDTAVYYCAREDWGPFDYWGQGTTVTVSS VL: DIQMTQSPSSLSASVGDRVTITCRASQSISNFVNWYQQKPGEVPKLLIYGASSLQSGVPSRFSGSGSGTDFTLTISSLQPEDFATYYCQQGYSVPLTFGGGTKVEIK", "OD450 in ELISA assay", 0.552],
  ["NeuB2-80 (antibody, V domains shown, Human antibody from a phage library; also called 80-HC/80-LC) VH: QVQLVQSGAEVKKPGASVKVSCKASGYTFTSYGISWVRQAPGQGLEWMGWISAYNGNTNYAQKLQGRVTMTTDTSTSTAYMELRSLRSDDTAVYYCARDGGGGYFDYWGQGTLVTVSS VL: QAVVTQPPSASGTPGQRITISCSGSSSNIGKNIVNWYQQVPGAAPKLLIYNNSQRPSGVPDRFSGSKSGTSASLAISGLQSEDEADYYCAAWDDSLRSWLFGGGTKVTVL", "OD450 in ELISA assay", 0.64]
]}

Ask: In one line, give reported OD450 in ELISA assay of the entry NeuB2-55 (antibody, V domains shown, also called Ab55; 55-HC/55-LC) VH: EVQLVQSGAEVKKPGSSVKVSCKASGGTFSSYAISWVRQAPGQGLEWMGGIIPIFGTANYAQKFQGRVTITADESTSTAYMELSSLRSEDTAVYYCARGVDQVDYWGQGTLVTVSS VL: QAVVTQPASVSGSPGQSITISCTGTSSDVGGYNYVSWYQQHPGKAPKLMIYDVSNRPSGVSNRFSGSKSGNTASLTISGLQAEDEADYYCSSYTSSSTPYVFGTGTKVTVL .
Reply: 0.886
